meta.source: patent US20030198617A1

- Test system: Staphylococci
- test method notes: Antibiotic-sensitivity of staphylococci from skin lesions (MIC, series cultivation)
- Type: cell-based
- condition summary: staphylococci from patients Before IM862
Marks after values point to notes of the source that are not given here.
assay endpoint: MIC g/ml

Example cases with answers are listed next.
| compound | MIC g/ml |
| --- | --- |
| O=C(N[C@H](CO)[C@H](O)c1ccc([N+](=O)[O-])cc1)C(Cl)Cl [Levomicetin] | 9.17 ± 0.36^x g/ml |
| CC1(C)S[C@@H]2[C@H](NC(=O)[C@H](N)c3ccccc3)C(=O)N2[C@H]1C(=O)O [Ampicillin, reference compound] | 8.10 ± 0.49^x g/ml |
| [H]/N=C(/N)N[C@H]1[C@H](O)[C@@H](O)[C@H](O[C@@H]2O[C@@H](C)[C@](O)(C=O)[C@H]2O[C@@H]2O[C@@H](CO)[C@H](O)[C@@H](O)[C@@H]2NC)[C@@H](N/C(N)=N\[H])[C@@H]1O [Streptomycin] | 6.71 ± 0.59^x g/ml |
| Cc1onc(-c2ccccc2)c1C(=O)N[C@@H]1C(=O)N2[C@@H]1SC(C)(C)[C@@H]2C(=O)O [Oxycillin] | 5.11 ± 0.63^x g/ml |

Okay, next one:
# lookup: Staphylococci MIC g/ml, key = NC[C@H]1O[C@H](O[C@H]2[C@H](O)[C@@H](O[C@H]3O[C@H](CO)[C@@H](O)[C@H](N)[C@H]3O)[C@H](N)C[C@@H]2N)[C@H](O)[C@@H](O)[C@@H]1O [Kanamycin]
6.32 ± 0.58^x g/ml
